- Tested on: human SMAD7 mRNA
- procedure.details: Antisense inhibition of human SMAD7 mRNA expression in Hep3B cells by 3-10-3 cEt gapmers, 10,000 nM, electroporation (Example 2)
- Format: cell-based
- setup.conditions: Hep3B cells, electroporation with 10,000 nM antisense oligonucleotide, approximately 24 hours, primer probe set RTS5062, relative to untreated control cells
Strand notation (5' to 3'): a small letter for the sugar, then the base; units joined by * are phosphorothioate-linked, units joined directly phosphodiester-linked; [ ] holds rarer units or linkages, { } end groups; capitals alone tell only the bases. k = constrained ethyl (cEt); [5mC] = 5-methylcytosine; d = 2'-deoxy (DNA)
test.readout: % inhibition of SMAD7 mRNA expression (%)
Give a bare numeral; the unit % is implied.

Examples from the recorded data:
> print(dat)
                                  substance  reading.unit  measured.number
1  798988 (antisense kT*kG*kA*dA*dA*dT*dG*dA*dT*dG*dA*d[5mC]*d[5mC]*kG*k[5mC]*k[5mC]) [compound 798988]             %               69
2  798764 (kA*k[5mC]*kT*dT*dT*dG*d[5mC]*dA*d[5mC]*dA*dG*d[5mC]*dA*kG*kG*kA; antisense) [compound 798764]             %               69
3  799403 (antisense kG*k[5mC]*kT*dA*dA*dG*dG*dT*d[5mC]*dA*d[5mC]*dT*dG*kT*kT*k[5mC]) [compound 799403]             %                0
4  799338 (kT*kT*kA*dT*dA*dG*d[5mC]*dA*d[5mC]*dG*d[5mC]*d[5mC]*dT*k[5mC]*kT*k[5mC]; antisense) [compound 799338]             %                0
5  772560 (antisense kT*kT*kG*d[5mC]*dA*d[5mC]*dA*dG*d[5mC]*dA*dG*dG*dA*kG*kG*kG) [compound 772560]             %               66

For record 799006 (k[5mC]*kG*k[5mC]*dT*d[5mC]*d[5mC]*dT*dG*d[5mC]*dA*d[5mC]*dA*d[5mC]*kG*k[5mC]*kG; antisense) [compound 799006] the listed % inhibition of SMAD7 mRNA expression is 0

For record 799164 (antisense kT*k[5mC]*kG*dA*dA*dG*dT*dA*dT*d[5mC]*dA*dT*dA*k[5mC]*kG*kA) [compound 799164] the listed % inhibition of SMAD7 mRNA expression is 37

---

Each item that follows carries a reported % Inhibition.
- System: human SMAD7 mRNA
- procedure.details: Antisense inhibition of human SMAD7 mRNA expression in Hep3B cells by 3-10-3 cEt gapmers, 10,000 nM, electroporation (Example 2)
- Type: cell-based
- setup.conditions: SMAD7 mRNA, Hep3B cells, 10,000 nM antisense oligonucleotide, electroporation, approximately 24 hours, primer probe set RTS5062, relative to untreated control cells
Strand notation (5' to 3'): a small letter for the sugar, then the base; units joined by * are phosphorothioate-linked, units joined directly phosphodiester-linked; [ ] holds rarer units or linkages, { } end groups; capitals alone tell only the bases. k = constrained ethyl (cEt); [5mC] = 5-methylcytosine; d = 2'-deoxy (DNA)
Give a bare numeral; the unit % is implied.

Examples from the recorded data:
> print(dat)
                                  substance  measurement.target  test.readout  measured.number
1  790732 (kG*k[5mC]*kT*dT*dA*dT*dT*dT*d[5mC]*dA*dT*dG*dT*kG*kG*kT; antisense) [compound 790732]    human SMAD7 mRNA  % Inhibition               69
2  790616 (k[5mC]*kT*kA*dA*dA*dT*dT*dT*d[5mC]*d[5mC]*dA*dA*dT*kG*kA*kG; antisense) [compound 790616]    human SMAD7 mRNA  % Inhibition               66
3  829768 (antisense kG*k[5mC]*kA*dG*dG*dA*dG*dG*d[5mC]*dA*d[5mC]*dG*d[5mC]*kG*kG*kT) [compound 829768]    human SMAD7 mRNA  % Inhibition               41
4  790471 (k[5mC]*kG*k[5mC]*d[5mC]*dG*dG*dG*d[5mC]*dG*d[5mC]*dA*d[5mC]*dG*kG*k[5mC]*kT; antisense) [compound 790471]    human SMAD7 mRNA  % Inhibition                4
5  829753 (antisense kT*k[5mC]*k[5mC]*d[5mC]*d[5mC]*dG*d[5mC]*dA*dG*d[5mC]*dT*d[5mC]*dG*k[5mC]*k[5mC]*kT) [compound 829753]    human SMAD7 mRNA  % Inhibition               29

Assay human SMAD7 mRNA, sample 772715 (kA*kG*k[5mC]*dT*dA*dG*dG*dT*dG*dA*dT*dA*dA*k[5mC]*kA*k[5mC]; antisense) [compound 772715] , % Inhibition read: 0

---

- Tested on: human SMAD7 mRNA
- procedure.details: Antisense inhibition of human SMAD7 mRNA expression in Hep3B cells by 3-10-3 cEt gapmers, 10,000 nM, electroporation (Example 2)
- Assay type: cell-based
- setup.conditions: Hep3B cells, electroporation with 10,000 nM antisense oligonucleotide, approximately 24 hours, RTS5062, percent inhibition of SMAD7 mRNA relative to untreated control cells
Strand notation (5' to 3'): a small letter for the sugar, then the base; units joined by * are phosphorothioate-linked, units joined directly phosphodiester-linked; [ ] holds rarer units or linkages, { } end groups; capitals alone tell only the bases. k = constrained ethyl (cEt); [5mC] = 5-methylcytosine; d = 2'-deoxy (DNA)
Each item that follows carries a reported % Inhibition.
Give a bare numeral; the unit % is implied.

Examples from the recorded data:
> print(dat)
                                  substance  test.readout  measured.number
1  799622 (kT*kT*k[5mC]*dT*dA*dA*dA*dA*dA*dT*dG*dT*d[5mC]*k[5mC]*k[5mC]*kA; antisense) [compound 799622]  % Inhibition               45
2  799750 (antisense kA*kG*k[5mC]*d[5mC]*dA*dA*dG*dA*dG*d[5mC]*dT*dG*d[5mC]*kT*kT*kG) [compound 799750]  % Inhibition                0

Kindly review the next substance as well.
Assay human SMAD7 mRNA, sample 799311 (antisense k[5mC]*kT*kT*dT*dA*dA*dG*d[5mC]*dA*d[5mC]*dG*d[5mC]*dT*k[5mC]*kT*kA) [compound 799311] , % Inhibition read: 27

---

Each item that follows carries a reported % Inhibition of SMAD7 mRNA.
- System: human SMAD7 mRNA
- procedure.details: Antisense inhibition of human SMAD7 mRNA expression in Hep3B cells by 5-10-5 MOE gapmers, single concentration, electroporation, RT-PCR (Example 1, Study 1 and 2)
- Type: cell-based
- setup.conditions: electroporation with 15,000 nM antisense oligonucleotide (Study 2), 5-10-5 MOE gapmers targeting SEQ ID NO: 1 and 2
Strand notation (5' to 3'): a small letter for the sugar, then the base; units joined by * are phosphorothioate-linked, units joined directly phosphodiester-linked; [ ] holds rarer units or linkages, { } end groups; capitals alone tell only the bases. e = 2'-O-(2-methoxyethyl) (MOE); [5mC] = 5-methylcytosine; d = 2'-deoxy (DNA)
Give a bare numeral; the unit % is implied.

Examples from the recorded data:
substance	measurement.target	reading.unit	% Inhibition of SMAD7 mRNA
771760 (antisense eA*eT*e[5mC]*eT*eT*dA*d[5mC]*d[5mC]*dT*dG*dA*dA*dA*dG*d[5mC]*e[5mC]*e[5mC]*e[5mC]*e[5mC]*e[5mC]) [compound 771760]	human SMAD7 mRNA	%	25
771800 (antisense eG*eA*e[5mC]*eA*eG*d[5mC]*dA*dG*dA*d[5mC]*dA*dG*dG*d[5mC]*dA*eA*eA*eA*eT*eG) [compound 771800]	human SMAD7 mRNA	%	32
771395 (antisense eG*e[5mC]*eG*e[5mC]*eT*d[5mC]*d[5mC]*dG*dG*d[5mC]*dT*dG*d[5mC]*d[5mC]*d[5mC]*e[5mC]*eA*e[5mC]*e[5mC]*e[5mC]) [compound 771395]	human SMAD7 mRNA	%	34

Assay human SMAD7 mRNA, sample 771449 (eT*e[5mC]*eG*e[5mC]*eA*dG*dA*dG*dT*d[5mC]*dG*dG*d[5mC]*dT*dA*eA*eG*eG*eT*eG; antisense) [compound 771449] , % Inhibition of SMAD7 mRNA read: 4

Assay human SMAD7 mRNA, sample 771489 (antisense e[5mC]*eA*eA*eA*eG*d[5mC]*dT*dG*dA*dT*d[5mC]*dT*dG*d[5mC]*dA*e[5mC]*eG*eG*eT*eA) [compound 771489] , % Inhibition of SMAD7 mRNA read: 34

Assay human SMAD7 mRNA, sample 771552 (antisense e[5mC]*eT*eT*eG*eG*dA*dT*dT*dT*d[5mC]*dT*dG*d[5mC]*dT*dT*e[5mC]*e[5mC]*e[5mC]*e[5mC]*eT) [compound 771552] , % Inhibition of SMAD7 mRNA read: 53

Assay human SMAD7 mRNA, sample 771664 (antisense eT*eA*eA*eA*eT*dT*dT*d[5mC]*d[5mC]*dA*dA*dT*dG*dA*dG*eA*eA*eT*eG*e[5mC]) [compound 771664] , % Inhibition of SMAD7 mRNA read: 25

Assay human SMAD7 mRNA, sample 278478 (antisense eA*e[5mC]*eA*eT*eG*dA*d[5mC]*d[5mC]*dT*d[5mC]*d[5mC]*dG*d[5mC]*dA*d[5mC]*eA*e[5mC]*e[5mC]*eA*eT) [compound 278478] , % Inhibition of SMAD7 mRNA read: 54
